For each of the compounds below, state its GI50.
Test system: LOX IMVI
test method notes: NCI tumour cell line growth inhibition, 48 h
Active and inactive are the calls of the source. Rule as the data show it: active = GI50 up to about 1.1 µM and inactive = higher.

[in] Please provide the recorded GI50 for `N#Cc1ccc(Cc2ccccn2)cc1Cl` , tested on LOX IMVI.
[out] > 100 µM (inactive)

[in] Please provide the recorded GI50 for c1ccc(COC2NCCN2Cc2ccccc2)cc1 (configuration not stated) , tested on LOX IMVI.
[out] > 100 µM (inactive)

[in] Please provide the recorded GI50 for `CC[C@@H](/C=C\CCC(=O)C[C@H](O)CCC=C(C)C)O[Si](C(C)C)(C(C)C)C(C)C` , tested on LOX IMVI.
[out] 90.8 µM (inactive)

[in] Please provide the recorded GI50 for COc1cccc(/C=C/C2=NN(c3cccc(S(=O)(=O)O)c3)C3(C2)SCC(=O)N3c2nc3ccccc3s2)c1 (configuration not stated) , tested on LOX IMVI.
[out] 21.1 µM (inactive)

[in] Please provide the recorded GI50 for `COc1ccc(C(=O)C(c2ccc(OCc3ccccc3)cc2)c2ccc(OCc3ccccc3)cc2)cc1` , tested on LOX IMVI.
[out] > 100 µM (inactive)

[in] Please provide the recorded GI50 for `CCOC(=O)c1c(N2CCOCC2)[nH]c(=O)c(C(c2cccs2)c2c(O)c(C(=O)OCC)c(N3CCOCC3)[nH]c2=O)c1O` , tested on LOX IMVI.
[out] > 100 µM (inactive)

[in] Please provide the recorded GI50 for `CCN(CC)c1ccc(/N=N/c2ccc(-c3nc4ccc[n+](C)c4o3)cc2)cc1` , tested on LOX IMVI.
[out] 4.3 µM (inactive)

Sourced from ChEMBL document CHEMBL1201862
